# melting point per record follows
Counter-ions that a name gives are not always drawn.
Output spec: scalar in °C, unitless text.

Here is how some compounds turned out for melting point.
O=C(c1ccc(F)c(Cl)c1)N1CCC(F)(CNCC2CNc3cccc(F)c3O2)CC1 (stereo not shown) (as salt: fumarate) [Compound 1b] : 100
O=C(c1ccc(F)c(Cl)c1)N1CCC(F)(CNCC2CNc3ccccc3O2)CC1 (single isomer, unassigned; (-)) (as salt: fumarate) [Compound 1a1] : 185

Exercise: Report melting point for O=C(c1ccc(F)c(Cl)c1)N1CCC(F)(CNCC2CNc3ccccc3O2)CC1 (stereo not shown) (as salt: hydrochloride) [Compound 1a3]
Key: 175

Exercise: Give me measured melting point, please, for this compound: CN1CC(CNCC2(F)CCN(C(=O)c3ccc(F)c(Cl)c3)CC2)Oc2ccccc21 (stereo not shown) (as salt: fumarate) [Compound 1g]
Key: 125
